test-system: Cytochrome P450 1A1 (Homo sapiens, UniProt P04798)
Sequence (P04798 whole entry): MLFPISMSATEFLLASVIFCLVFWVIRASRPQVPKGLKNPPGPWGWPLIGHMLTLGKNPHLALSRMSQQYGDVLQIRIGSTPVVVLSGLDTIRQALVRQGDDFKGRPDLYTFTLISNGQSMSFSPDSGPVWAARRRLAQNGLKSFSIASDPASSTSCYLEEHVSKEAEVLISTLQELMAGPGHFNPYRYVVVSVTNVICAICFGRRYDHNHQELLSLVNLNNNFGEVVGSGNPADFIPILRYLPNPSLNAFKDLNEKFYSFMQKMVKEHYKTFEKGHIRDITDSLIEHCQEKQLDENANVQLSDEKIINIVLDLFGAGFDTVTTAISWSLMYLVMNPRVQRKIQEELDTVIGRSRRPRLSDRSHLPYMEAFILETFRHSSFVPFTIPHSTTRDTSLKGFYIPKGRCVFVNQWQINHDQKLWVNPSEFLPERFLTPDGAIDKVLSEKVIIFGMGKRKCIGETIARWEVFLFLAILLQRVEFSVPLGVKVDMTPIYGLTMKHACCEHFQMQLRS
procedure-text: Inhibition of CYP1A1 in human Caco-2 cells assessed as relative activity by measuring fold change at 5.0 uM incubated for 12 hrs by EROD assay relative to control
Format: cell-based
condition-set: caco-2, 12 h
quantity: fold change (FC)

Take a look at these entries with their results.
Query: Could you share which fold change (FC) value was measured for Cn1c(=O)n(C)c2cc(C(=O)/C=C/c3ccccc3F)ccc21 ?
Response: 0.04

Query: Field request: fold change (FC) | item: CC(C)=CCC/C(C)=C/COc1c2ccoc2cc2oc(=O)ccc12
Response: 0.05

Query: Suppose we examine the molecule Cn1cc(/C=C/C(=O)c2ccc3c(c2)n(C)c(=O)n3C)c2ccccc21 ; what fold change (FC) value has been reported?
Response: 0.09

Query: Recorded fold change (FC) for Cn1c(=O)n(C)c2cc(C(=O)/C=C/c3ccc(F)cc3Cl)ccc21 , please?
Response: 0.38

A: O=C(/C=C/c1ccc(F)cc1)c1ccccc1
B: Cn1c(=O)n(C)c2cc(C(=O)/C=C/c3ccc(-c4ccccc4)cc3)ccc21
C: Cn1c(=O)n(C)c2cc(C(=O)/C=C/c3cccc(F)c3)ccc21
D: C#Cc1ccc(/C=C/C(=O)c2ccccc2)cc1
E: Cn1c(=O)n(C)c2cc(C(=O)/C=C/c3cc4ccccc4s3)ccc21
Query: Rank order required: fold change (FC), descending. # list labels per requested ordering
Response: A, E, D, B, C
(A: 0.86, E: 0.56, D: 0.3, B: 0.15, C: 0.07)

P: Cn1c(=O)n(C)c2cc(C(=O)/C=C/c3ccoc3)ccc21
Q: Cn1c(=O)n(C)c2cc(C(=O)/C=C/c3ccc(F)cc3F)ccc21
Query: Given P and given Q , which shows the smaller recorded fold change (FC)? Choose, then provide that item's label.
Response: P
(P: 0.18, Q: 0.42)

====

test-system: CYP1A1 (Mus musculus)
procedure-text: Inhibition of CYP1A1 in mouse RAW264.7 cells assessed as relative activity by measuring fold change at 500 nM incubated for 12 hrs by EROD assay relative to control
Format: cell-based
condition-set: read-out: FC
quantity: fold induction at 12 h, 0.5 µM

Query: Report fold induction at 12 h, 0.5 µM for Cn1c(=O)n(C)c2cc(C(=O)/C=C/c3ccc([N+](=O)[O-])cc3)ccc21 please.
Response: 0.79

Query: Item CC(=O)n1cc(/C=C/C(=O)c2ccc3c(c2)n(C)c(=O)n3C)c2ccccc21 has what recorded fold induction at 12 h, 0.5 µM?
Response: 0.92

Query: Quick one: fold induction at 12 h, 0.5 µM for C#Cc1ccccc1/C=C/C(=O)c1ccc2c(c1)n(C)c(=O)n2C ?
Response: 0.07

====

test-system: CYP1A1 (Mus musculus)
procedure-text: Inhibition of CYP1A1 in mouse RAW264.7 cells assessed as relative activity by measuring fold change at 5 uM incubated for 12 hrs by EROD assay relative to control
Assay type: cell-based
condition-set: read-out: FC
quantity: fold induction at 12 h, 5 µM

Some molecules with recorded fold induction at 12 h, 5 µM:
Query: Endpoint output: fold induction at 12 h, 5 µM of O=C(/C=C/c1ccc(F)cc1)c1ccccc1 [4-FLUORO CHALCONE] . Value?
Response: 0.91

Query: Please look up its fold induction at 12 h, 5 µM: Cn1c(=O)n(C)c2cc(C(=O)/C=C/c3cccnc3)ccc21
Response: 0.53

Query: Tell me the measured fold induction at 12 h, 5 µM of Cn1c(=O)n(C)c2cc(C(=O)/C=C/c3ccc(B(O)O)cc3F)ccc21 , please.
Response: 0.66

Query: If you can, please state the reported fold induction at 12 h, 5 µM value of Cn1c(=O)n(C)c2cc(C(=O)/C=C/c3ccc(I)o3)ccc21 .
Response: 0.55

Query: Recorded fold induction at 12 h, 5 µM for Cn1c(=O)n(C)c2cc(C(=O)/C=C/C#Cc3ccccc3)ccc21 , please?
Response: 0.49

I: Cn1c(=O)n(C)c2cc(C(=O)/C=C/c3cccc(F)c3)ccc21
II: CN(C)c1ccc(/C=C/C(=O)c2ccc3c(c2)n(C)c(=O)n3C)cc1
Query: // select label with min value of measured fold induction at 12 h, 5 µM from [ I , II ] Selection: enter the item's label.
Response: II

a: Cn1c(=O)n(C)c2cc(C(=O)/C=C/C#C[Si](C)(C)C)ccc21
b: Cn1c(=O)n(C)c2cc(C(=O)/C=C/C=C/c3ccc(F)cc3)ccc21
Query: Higher fold induction at 12 h, 5 µM between a and b ? Record your answer as the label of the chosen record.
Response: b

a: C#Cc1cccc(/C=C/C(=O)c2ccc3c(c2)n(C)c(=O)n3C)c1
b: Cn1cccc1/C=C/C(=O)c1ccc2c(c1)n(C)c(=O)n2C
c: Cn1c(=O)n(C)c2cc(C(=O)/C=C/C=C/c3ccccc3)ccc21
d: Cn1c(=O)n(C)c2cc(C(=O)/C=C/c3cccnc3Br)ccc21
e: Cn1c(=O)n(C)c2cc(C(=O)/C=C/c3ncccn3)ccc21
Query: Rank the items in ascending order with respect to fold induction at 12 h, 5 µM. To answer, write out the labels according to the requested order.
Response: a, d, c, e, b
(a: 0.14, d: 0.22, c: 0.44, e: 0.72, b: 1.07)

====

test-system: Cytochrome P450 1A1 (Homo sapiens)
procedure-text: Inhibition of CYP1A1 in human Caco-2 cells assessed as relative activity by measuring fold change at 5.0 uM incubated for 12 hrs by EROD assay relative to control
Assay type: cell-based
condition-set: caco-2, 12 h
quantity: fold change (FC)

Query: Look up fold change (FC) for this compound: Cn1c(=O)n(C)c2cc(C(=O)/C=C/c3cccnc3Br)ccc21
Response: 0.22

Query: Endpoint output: fold change (FC) of Cn1c(=O)n(C)c2cc(C(=O)/C=C/c3cnc4ccccc4c3)ccc21 . Value?
Response: 0.15

Query: What fold change (FC) value was documented for this compound, Cn1c(=O)n(C)c2cc(C(=O)/C=C/c3cccs3)ccc21 ?
Response: 0.18

Query: So what does the record say about fold change (FC) for C#Cc1ccccc1/C=C/C(=O)c1ccc2c(c1)n(C)c(=O)n2C ?
Response: 0.01

====

test-system: CYP1A1 (Mus musculus, UniProt P00184)
Sequence (P00184 whole entry): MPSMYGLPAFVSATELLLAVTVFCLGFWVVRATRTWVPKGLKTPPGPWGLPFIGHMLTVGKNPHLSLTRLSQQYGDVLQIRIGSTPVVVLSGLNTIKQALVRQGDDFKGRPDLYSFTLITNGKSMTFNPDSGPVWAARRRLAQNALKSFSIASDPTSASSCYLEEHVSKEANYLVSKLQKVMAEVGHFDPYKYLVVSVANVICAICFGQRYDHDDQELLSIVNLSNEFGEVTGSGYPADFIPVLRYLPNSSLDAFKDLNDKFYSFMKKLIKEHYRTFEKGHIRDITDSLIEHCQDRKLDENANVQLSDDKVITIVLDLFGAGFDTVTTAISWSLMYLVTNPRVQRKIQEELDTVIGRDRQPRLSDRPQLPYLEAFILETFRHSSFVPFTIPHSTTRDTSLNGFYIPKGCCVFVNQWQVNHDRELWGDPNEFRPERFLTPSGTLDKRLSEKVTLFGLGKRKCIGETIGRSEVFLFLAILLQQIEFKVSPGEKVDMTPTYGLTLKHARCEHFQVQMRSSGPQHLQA
procedure-text: Inhibition of CYP1A1 in mouse RAW264.7 cells assessed as relative activity by measuring fold change at 5 uM incubated for 12 hrs by EROD assay relative to control
Type: cell-based
condition-set: read-out: FC
quantity: fold induction at 12 h, 5 µM

Query: fold induction at 12 h, 5 µM of Cn1c(=O)n(C)c2cc(C(=O)/C=C/c3cn(Cc4ccccc4)c4ccccc34)ccc21 on CYP1A1 (Mus musculus, UniProt P00184)?
Response: 0.78

Query: Recorded fold induction at 12 h, 5 µM for Cn1c(=O)n(C)c2cc(C(=O)/C=C/c3ccc(C(C)(C)C)cc3)ccc21 with CYP1A1 (Mus musculus, UniProt P00184), please?
Response: 0.51

Query: Fill in the recorded fold induction at 12 h, 5 µM for this compound, with CYP1A1 (Mus musculus, UniProt P00184) as test system: CC(=O)n1cc(/C=C/C(=O)c2ccc3c(c2)n(C)c(=O)n3C)c2ccccc21
Response: 0.17

P: Cn1c(=O)n(C)c2cc(C(=O)/C=C/c3cc4ccccc4s3)ccc21
Q: Cn1c(=O)n(C)c2cc(C(=O)/C=C/c3cccs3)ccc21
Query: Of the pair P and Q , name the member with the lesser recorded fold induction at 12 h, 5 µM. Your answer should be the label of the entry you select.
Response: Q

====

test-system: CYP1A1 (Mus musculus)
procedure-text: Inhibition of CYP1A1 in mouse RAW264.7 cells assessed as relative activity by measuring fold change at 5 uM incubated for 12 hrs by EROD assay relative to control
Format: cell-based
condition-set: read-out: FC
quantity: fold induction at 12 h, 5 µM

P: Cn1c(=O)n(C)c2cc(S(=O)(=O)NCc3ccccc3)ccc21
Q: Cn1c(=O)n(C)c2cc(C(=O)/C=C/c3cnc4ccccc4c3)ccc21
R: CSc1ccc(/C=C/C(=O)c2ccc3c(c2)n(C)c(=O)n3C)cc1
Query: Put these in order: smallest fold induction at 12 h, 5 µM first, largest last. State the ranking by listing the labels in the requested order.
Response: R, Q, P

A: Cn1c(=O)n(C)c2cc(C(=O)/C=C/c3cc(F)c(F)cc3F)ccc21
B: Cn1c(=O)n(C)c2cc(C(=O)/C=C/c3ccccc3)ccc21
C: Cn1c(=O)n(C)c2cc(C(=O)/C=C/C3CC3)ccc21
Query: Ordering criterion: fold induction at 12 h, 5 µM; begin with the maximum. List each label, following the requested order.
Response: A, C, B
(A: 0.79, C: 0.38, B: 0.22)
